System: DU-145 prostate
assay.comment: NCI tumour cell line growth inhibition, 48 h
Peptide text beside a SMILES is read from it. * marks the point of attachment. OSu = O=C1CCC(=O)N1O*; OBn = c1ccc(CO*)cc1; Bn = c1ccc(C*)cc1
A collection of compounds and their measured TGI

Guide cases for TGI, answers given:
compound: CC(C)C(/C=C/c1ccccc1)=N\NC(=S)NN
test.readout: TGI
reported.result: > 100 µM
//
compound: OC1(c2ccc(Cl)cc2)c2ccccc2C2=NCc3ccccc3CN21 (configuration not stated)
test.readout: TGI
reported.result: 34.7 µM

## Task Answer with the recorded TGI for the compound listed here: `O=C1C=C(NCCc2cc(Br)c(O)c(Br)c2)C(=O)c2[nH]cnc21`
## Result > 100 µM

## Task For the compound `Clc1ccc(-c2nn3c(C45CC6CC(CC(C6)C4)C5)nnc3s2)cc1` , give its measured TGI value.
## Result > 100 µM

## Task Quote TGI reported for `CC(C)[C@@H](CS(=O)(=O)C(C)C)N1C(=O)[C@@](C)(CC(=O)O)C[C@H](c2cccc(Cl)c2)[C@H]1c1ccc(Cl)cc1` please.
## Result > 100 µM

## Task For the compound `Cc1ccc(-n2c(-c3ccc(Cl)cc3)cs/c2=N\NC(=O)COc2n[nH]c(=O)c3ccccc23)cc1` , report TGI.
## Result > 100 µM

## Task Return reported TGI. Input compound: `Cc1ccc(Nc2nc(NS(=O)(=O)c3cc(C)c(Cl)cc3S)n[nH]2)cc1`
## Result > 100 µM

## Task # return recorded TGI for entry `Clc1cccc(N=C/C=C/Nc2cccc(Cl)c2)c1`
## Result 96.2 µM

## Task Identify measured TGI corresponding to `CC1(C)CC[C@]2(C(=O)O)CC[C@]3(C)[C@H](CC[C@@H]4[C@@]5(C)CCC(=O)C(C)(C)[C@@H]5CC[C@]43C)[C@H]2[C@H]1OC(=O)C(F)(F)F`
## Result 34 µM

## Task Read off the recorded TGI for CC12CCC(O)CC1CCC1C2CCC2(C)C(C3=CC(=O)OC3)CCC12 (configuration not stated)
## Result > 100 µM

## Task Report measured TGI; entry is CCCC1C(C#N)(C#N)C(C#N)=C(N)C1(C)C(C)=O (configuration not stated)
## Result > 100 µM

## Task Give TGI for COC(=O)C(N)CCCC(N)C(=O)NC(C)C(=O)NC(CCC(=O)NCCCNc1ccc([N+](=O)[O-])c2[nH]c3ccccc3c(=O)c12)C(N)=O (configuration not stated)
## Result 19.1 µM

## Task Look up and state reported TGI for `Nc1ccc(-c2nc3cc(F)ccc3s2)cc1`
## Result > 100 µM

## Task Note down TGI recorded for `Cc1ccnc2sc3ccccc3c(=O)c12`
## Result > 100 µM

## Task Check the records and state TGI for `CCCCC(=O)OC[n+]1ccc2c(C)c3[nH]c4ccc(OC)cc4c3c(C)c2c1`
## Result 4.82 µM

## Task Report TGI for `C=C(C(=O)OC)[C@@H]1C[C@@H](O)[C@]2(C)CC/C=C(\C)CCC[C@H](C)[C@H](O)C1O2`
## Result > 100 µM

## Task Answer with the recorded TGI of `S=C1CSc2c(cnc3ccccc23)N1` only.
## Result > 100 µM

## Task Using known records, supply TGI for CCOC(=O)C1=CN(C(=O)c2ccccc2)CCC1Cc1ccccc1 (configuration not stated)
## Result > 100 µM

## Task Return reported TGI. Input compound: CC(C)CC(NC(=O)C(N)CCC(=O)OCc1ccccc1)C(=O)NC(COCc1ccccc1)C(=O)NC(Cc1ccccc1)C(=O)ON1C(=O)CCC1=O (configuration not stated) (H-E(OBn)LS(Bn)F-OSu; configuration not given here)
## Result > 100 µM

## Task Tell us which TGI value is on record for `CCOC(=O)c1ccc(NC(NC(=O)CC)(C(F)(F)F)C(F)(F)F)cc1`
## Result > 100 µM

## Task Return TGI for the following compound: `CN(/N=C/c1ccc(Cl)c(Cl)c1)C1=NCCN1`
## Result > 100 µM
